The measurements presented in this section are drawn from patent US4864023A.

test system: Serratia marcescens IFO 12648
MIC strictly less than 0.4 µg/mL = Condition met. Otherwise Condition not met.

In: Regarding CCNC1CCN(c2c(F)cc3c(=O)c(C(=O)O)cn4c3c2OCN4C)CC1 , kindly confirm whether its MIC is beneath 0.4 µg/mL.
Out: Condition not met

In: Field entry: CN1COc2c(N3CCN(C(=O)CCC(=O)O)CC3)c(F)cc3c(=O)c(C(=O)O)cn1c23
Out: Condition not met

In: Field entry: CN1COc2c(N3CCC(N)C3)c(F)cc3c(=O)c(C(=O)O)cn1c23 (centres unmarked)
Out: Condition met

In: Field entry: CC(=O)CCN1CCN(c2c(F)cc3c(=O)c(C(=O)O)cn4c3c2OCN4C)CC1
Out: Condition met

In: Field entry: CN1CCN(c2c(F)cc3c(=O)c(C(=O)O)cn4c3c2OCN4CCF)CC1
Out: Condition met

In: Field entry: CN1CCN(c2c(F)cc3c(=O)c(C(=O)O)cn4c3c2OC(CO)N4C)CC1 (centres unmarked)
Out: Condition not met

In: Field entry: COC1CCN(c2c(F)cc3c(=O)c(C(=O)O)cn4c3c2OCN4C)C1 (centres unmarked)
Out: Condition not met

In: Field entry: CN1COc2c(N3CCC(N)CC3)c(F)cc3c(=O)c(C(=O)O)cn1c23
Out: Condition not met

###

tested on: Klebsiella pneumoniae FDA PCI 602
Record form. Attribute: MIC. Fill in for each entry.
// return the numeric value with its unit appended

In: What value of MIC has been recorded for this entry: CN1COc2c(N3CCNC(c4ccccc4)C3)c(F)cc3c(=O)c(C(=O)O)cn1c23 (centres unmarked)
Out: 0.2 µg/mL

In: Field entry: CN1COc2c(N3CCN(CCO)CC3)c(F)cc3c(=O)c(C(=O)O)cn1c23
Out: 0.39 µg/mL

In: Field entry: CCNCC1CCN(c2c(F)cc3c(=O)c(C(=O)O)cn4c3c2OCN4C)C1 (centres unmarked)
Out: 0.39 µg/mL

In: Field entry: CC(=O)N1CCN(c2c(F)cc3c(=O)c(C(=O)O)cn4c3c2OCN4C)CC1
Out: 6.25 µg/mL

In: Field entry: CN1COc2c(N3CCC(CN)CC3)c(F)cc3c(=O)c(C(=O)O)cn1c23
Out: 3.13 µg/mL

In: Field entry: CN1COc2c(-n3ccnc3)c(F)cc3c(=O)c(C(=O)O)cn1c23
Out: 0.39 µg/mL

In: Field entry: CN1COc2c(N3CCC(Cl)C3)c(F)cc3c(=O)c(C(=O)O)cn1c23 (centres unmarked)
Out: 3.13 µg/mL

In: Field entry: CC(=O)CN1CCN(c2c(F)cc3c(=O)c(C(=O)O)cn4c3c2OCN4C)CC1
Out: 1.56 µg/mL

###

system: Proteus rettgeri ATCC 14505; test: in vitro antibacterial activity, standard agar dilution method; assay type: cell-based; settings: Providencia rettgeri, ATCC14505, aerobic, read-out: minimum inhibitory concentration (MIC)
metric: MIC (µg/mL)
Expressed in µg/mL, but write only the number.

In: What value of MIC has been recorded for this entry: CC1CN(c2c(F)cc3c(=O)c(C(=O)O)cn4c3c2OCN4C)CCN1 (stereo not drawn) [Example 7]
Out: 0.78

In: Field entry: CN1COc2c(N3CCNCC3)c(F)cc3c(=O)c(C(=O)O)cn1c23 [Example 6]
Out: 0.1

In: Field entry: CN1COc2c(N3CCN(C(=O)CCC(=O)O)CC3)c(F)cc3c(=O)c(C(=O)O)cn1c23 [Example 49]
Out: 3.13

In: Field entry: CN1COc2c(N3CCC(CN)CC3)c(F)cc3c(=O)c(C(=O)O)cn1c23 [Example 12]
Out: 12.5

In: Field entry: CC1Oc2c(N3CCN(C)CC3)c(F)cc3c(=O)c(C(=O)O)cn(c23)N1C (stereo not drawn) [Example 26]
Out: 6.25

In: Field entry: CC(=O)N1CCN(c2c(F)cc3c(=O)c(C(=O)O)cn4c3c2OCN4C)CC1 [Example 50]
Out: 6.25

In: Field entry: CNC1CCN(c2c(F)cc3c(=O)c(C(=O)O)cn4c3c2OCN4C)CC1 [Example 34]
Out: 3.13

In: Field entry: CN1CCN(c2c(F)cc3c(=O)c(C(=O)O)cn4c3c2OCN4CCF)CC1 [Example 69]
Out: 0.78

In: Field entry: CN1COc2c(N3CCN(Cc4ccc(N)cc4)CC3)c(F)cc3c(=O)c(C(=O)O)cn1c23 [Example 53]
Out: 1.56

In: Field entry: CN1COc2c(N3CCCNCC3)c(F)cc3c(=O)c(C(=O)O)cn1c23 [Example 16]
Out: 1.56

In: Field entry: CN1COc2c(N3CCC(Cl)C3)c(F)cc3c(=O)c(C(=O)O)cn1c23 (stereo not drawn) [Example 59]
Out: 3.13

In: Field entry: CN1COc2c(N3CCOCC3)c(F)cc3c(=O)c(C(=O)O)cn1c23 [Example 9]
Out: 1.56

In: Field entry: CCNC1CCN(c2c(F)cc3c(=O)c(C(=O)O)cn4c3c2OCN4C)CC1 [Example 35]
Out: 3.13

In: Field entry: CNC1CCN(c2c(F)cc3c(=O)c(C(=O)O)cn4c3c2OCN4C)C1 (stereo not drawn) [Example 31]
Out: 0.39

In: Field entry: COC1CCN(c2c(F)cc3c(=O)c(C(=O)O)cn4c3c2OCN4C)C1 (stereo not drawn) [Example 37]
Out: 6.25

In: Field entry: CC(=O)CCN1CCN(c2c(F)cc3c(=O)c(C(=O)O)cn4c3c2OCN4C)CC1 [Example 51]
Out: 0.2

In: Field entry: CN1COc2c(N3CCNC(c4ccccc4)C3)c(F)cc3c(=O)c(C(=O)O)cn1c23 (stereo not drawn) [Example 8]
Out: 0.39

In: Field entry: CC(=O)CN1CCN(c2c(F)cc3c(=O)c(C(=O)O)cn4c3c2OCN4C)CC1 [Example 40]
Out: 3.13
